Please provide measured shrunken log2 fold change for the entries that follow.
Test system: Escherichia coli TOP10
Assay: shrunken log2 fold change of peptide-encoding DNA abundance (4.5 h post-induction vs induction); higher = less antimicrobial activity (less host growth inhibition)
Details: time post-induction: 4.5 h; library: site-saturation at positions 5, 18, 19, 20

Solved entries:
SEQUENCE CONTENT	READING
RRIRTRPPRLPRPRPRPFQEPRP	0.00783
RRIRGRPPRLPRPRPRPAEYPRP	-0.187

Batch: shrunken log2 fold change for all items listed.
1. RRIRRRPPRLPRPRPRPAGSPRP
2. RRIRDRPPRLPRPRPRPSFNPRP
3. RRIRDRPPRLPRPRPRPRLWPRP

0.384
-0.68
0.842

----------
Tested on: Escherichia coli TOP10
Experiment: shrunken log2 fold change of peptide-encoding DNA abundance (4.5 h post-induction vs induction); higher = less antimicrobial activity (less host growth inhibition)
Settings: time post-induction: 4.5 h; library: site-saturation at positions 5, 18, 19, 20
ASSAY ENDPOINT: shrunken log2 fold change
Numbers only.

Please review the following examples before continuing.
SEQUENCE CONTENT	SYSTEM TESTED	shrunken log2 fold change
RRIRMRPPRLPRPRPRPKITPRP	Escherichia coli TOP10	0.19
RRIRPRPPRLPRPRPRPVFRPRP	Escherichia coli TOP10	-0.332
RRIRTRPPRLPRPRPRPADFPRP	Escherichia coli TOP10	0.0361
RRIRERPPRLPRPRPRPSSVPRP	Escherichia coli TOP10	-0.306

Batch: shrunken log2 fold change for all items listed.
1. RRIRMRPPRLPRPRPRPSVSPRP
2. RRIRWRPPRLPRPRPRPMAQPRP
3. RRIRERPPRLPRPRPRPVGMPRP
4. RRIRMRPPRLPRPRPRPNDQPRP
5. RRIRQRPPRLPRPRPRPWIEPRP

-0.35
0.218
-0.0934
0.0566
-0.0606

----------
Test system: Escherichia coli TOP10
Experiment: shrunken log2 fold change of peptide-encoding DNA abundance (4.5 h post-induction vs induction); higher = less antimicrobial activity (less host growth inhibition)
Conditions: time post-induction: 4.5 h; library: site-saturation at positions 5, 18, 19, 20
Class (required): determined from shrunken log2 fold change; valid ranges are lower range = under -0.06, middle range = from -0.06 up to 0.1, upper range = 0.1 and over

As a guide, the following entries are already answered.
SEQUENCE CONTENT	SYSTEM TESTED	LABEL CLASS
RRIRARPPRLPRPRPRPPFYPRP	Escherichia coli TOP10	upper range
RRIRARPPRLPRPRPRPRHWPRP	Escherichia coli TOP10	upper range
RRIRHRPPRLPRPRPRPKFWPRP	Escherichia coli TOP10	middle range

Exercise: read the entry RRIRIRPPRLPRPRPRPGISPRP and state which class it falls under.
lower range

Hi, small favor: classify RRIRCRPPRLPRPRPRPENDPRP by its shrunken log2 fold change when you get a moment.
middle range

Which of the defined bands does the recorded shrunken log2 fold change of RRIRWRPPRLPRPRPRPFSGPRP sit within?
middle range

Where would RRIRQRPPRLPRPRPRPMCDPRP land among the classes by reported shrunken log2 fold change?
middle range

----------
Provide the recorded shrunken log2 fold change for the entries that follow.
Tested on: Escherichia coli TOP10;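 note: peptides expressed intracellularly from a pBAD plasmid library in pooled LB shake-flask culture, induced with 0.3% L-arabinose, DNA abundance read by NGS, three biological replicates, DESeq2 with apeglm shrinkage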
Assay: shrunken log2 fold change of peptide-encoding DNA abundance (4.5 h post-induction vs induction); higher = less antimicrobial activity (less host growth inhibition)
Conditions: time post-induction: 4.5 h; library: site-saturation at positions 5, 18, 19, 20
One number for each entry.

Sample records with shrunken log2 fold change:
SEQUENCE CONTENT	shrunken log2 fold change
RRIRTRPPRLPRPRPRPEAIPRP	-0.00172
RRIRRRPPRLPRPRPRPATCPRP	0.161
RRIRWRPPRLPRPRPRPSDCPRP	-0.183
RRIRHRPPRLPRPRPRPMTVPRP	0.055

Please turn your attention to the following entry.
What shrunken log2 fold change value was documented for this sequence, RRIRIRPPRLPRPRPRPSTWPRP ?
-0.481
